Tested on: KM12 colon
procedure.summary: NCI tumour cell line growth inhibition, 48 h
parameter.measured: TGI

Form: item Cc1cc(C)c2c(=O)n(CN3CC4Nc5ccccc5C4C3)sc2n1 (stereo unspecified) ; test system KM12 colon; TGI: > 100 µM

Form: item O=C1CCC(=Nc2ccc(Cl)cc2)N1C(=O)COc1ccc(OCC(=O)N2C(=O)CSC2=Nc2ccc(Cl)cc2)cc1 ; test system KM12 colon; TGI: > 100 µM

Form: item N#CC(C(=O)/C(=N/NC(=O)c1ccccc1O)C(C#N)c1ccc(Cl)cc1)c1ccc(Cl)cc1 (stereo unspecified) ; test system KM12 colon; TGI: 30 µM

Form: item CCNC(=O)Nc1ccccn1 ; test system KM12 colon; TGI: > 100 µM

Form: item CC(C)(C)C#CC1=C(Br)C(=O)OC1 ; test system KM12 colon; TGI: 3.6 µM

Form: item CC(C)(C)C[C@H]1NC(C(=O)NCC[C@H](O)CO)[C@H](c2cccc(Cl)c2)[C@@]12C(=O)Nc1cc(Cl)c(F)cc12 (stereo partly specified) ; test system KM12 colon; TGI: 28.8 µM

Form: item O=c1cc(/C=C/c2ccc(O)c(O)c2)oc(/C=C/c2ccc(O)c(O)c2)c1 ; test system KM12 colon; TGI: 16 µM

Form: item COC(=O)NN(C(=O)OC)c1c(-c2ccccc2)nc(SC)n1N ; test system KM12 colon; TGI: > 100 µM

Form: item Cc1cccc(NC(=O)CC(=O)N2N=C(N(CCC#N)c3ccc(Cl)cc3)CC2c2ccccc2)c1 (stereo unspecified) ; test system KM12 colon; TGI: > 100 µM

Form: item CCCCn1c2c(n(CCCC)c1=S)-c1c(n(CCCC)c(=S)n1CCCC)S[Se][Se]S2 ; test system KM12 colon; TGI: > 53.5 µM

Form: item CSCCC(NCc1c(O)ccc2c(-c3ccccc3)cc(=O)oc12)C(=O)O (stereo unspecified) ; test system KM12 colon; TGI: > 100 µM

Form: item CCCCCCCCCC[C@H](O)[C@H]1CC[C@H]([C@H]2CC[C@H]([C@H](O)CC[C@H](O)CCCCCCC[C@@H](O)CC3=C[C@H](C)OC3=O)O2)O1 ; test system KM12 colon; TGI: > 100 µM

Form: item C=C1C(=O)O[C@H]2[C@H]1CC/C(COC(=O)NCc1ccccc1OC)=C\CC[C@@]1(C)O[C@@H]21 ; test system KM12 colon; TGI: 13.6 µM

Form: item O=C1c2ccccc2CN1c1ccc(O)cc1 ; test system KM12 colon; TGI: > 100 µM

Form: item COC(=O)[C@]12CC[C@@H](C)[C@H](C)[C@@H]1C1=CC[C@@H]3[C@@]4(C)C[C@@H](OC(C)=O)[C@H](O)[C@@](C)(COC(C)=O)[C@@H]4[C@H](O)C[C@@]3(C)[C@]1(C)CC2 ; test system KM12 colon; TGI: 7.9 µM

Form: item c1cc(-c2cn3ccsc3n2)ccn1 ; test system KM12 colon; TGI: > 100 µM
